Reference source: ChEMBL document CHEMBL4715788

Target: Trace amine-associated receptor 1 (Mus musculus)
Assay: Agonist activity at mouse TAAR1 expressed in HEK293T cells assessed as induction of cAMP production by BRET assay
I'd appreciate it if you could supply pEC50 values for the items below.
Give bare numbers, as −log10 of the molar value.

{"columns": ["structure_notation", "test_result"],
 "data": [
  ["Cc1cc(CCN)ccc1Cc1ccc(N)cc1", 6.92]
]}

Okay, here is my list. What is pEC50 for each of these?
1. Cc1cc(CCN)ccc1Cc1ccc(O)cc1
2. Cc1cc(CCN)cc(C)c1-c1ccc(N)cc1
3. CCN(C(C)=O)c1ccc(Cc2ccc(CCN)cc2C)cc1C(C)C

1: 7.01; 2: 6.20; 3: 6.36

----------
Biological target: UniProtKB Q923Y8
Experiment: Agonist activity at mouse TAAR1 expressed in HEK293T cells assessed as induction of cAMP production by BRET assay
test_readout: EC50 (µM)
Numbers only, in µM.

Before answering, review these 2 worked examples.
{"columns": ["structure_notation", "measure_unit", "EC50"],
 "data": [
  ["CC(=O)Nc1ccc(Cc2ccc(CCN)cc2C)cc1", "µM", 3.1],
  ["Cc1cc(CCN)cc(C)c1Cc1ccc(N)cc1", "µM", 0.158]
]}

Reported EC50, compound CCNc1ccc(Cc2ccc(CCN)cc2C)cc1C(C)C : ____
0.102

----------
Target: Trace amine-associated receptor 1 (Mus musculus, UniProt Q923Y8)
Sequence (Q923Y8 whole entry): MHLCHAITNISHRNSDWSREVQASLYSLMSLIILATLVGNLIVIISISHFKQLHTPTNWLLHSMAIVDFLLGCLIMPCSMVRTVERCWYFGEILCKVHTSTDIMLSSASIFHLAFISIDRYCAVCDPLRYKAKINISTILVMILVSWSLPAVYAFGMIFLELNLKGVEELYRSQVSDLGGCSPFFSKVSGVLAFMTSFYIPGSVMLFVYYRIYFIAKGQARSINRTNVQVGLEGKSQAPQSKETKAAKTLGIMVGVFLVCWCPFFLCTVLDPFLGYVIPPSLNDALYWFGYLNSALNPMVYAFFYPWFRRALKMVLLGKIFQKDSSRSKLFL
Assay: Agonist activity at mouse TAAR1 expressed in HEK293T cells assessed as induction of cAMP production by BRET assay
Give measured pEC50 for each item. Keep answers brief.
Answers are plain numbers, as −log10 of the molar value.

{"columns": ["structure_notation", "target_entity", "pEC50"],
 "data": [
  ["Cc1cc(OCCN)cc(C)c1Cc1ccc(N)cc1", "Trace amine-associated receptor 1 (Mus musculus, UniProt Q923Y8)", 6.87]
]}

Now take the following compound into account.
I am curious: what pEC50 value has been reported for Cc1cc(CCN)ccc1-c1ccc(N)cc1 ?
5.93

----------
Target: Trace amine-associated receptor 1 (Mus musculus, UniProt Q923Y8)
Assay: Agonist activity at mouse TAAR1 expressed in HEK293T cells assessed as induction of cAMP production by BRET assay
test_readout: EC50

Reference set, count: 2
{"columns": ["structure_notation", "EC50"],
 "data": [
  ["Cc1cc(OCCNC(=N)NC(=N)N)ccc1Cc1ccc(N)cc1", "> 10 µM"],
  ["CC(=O)NCCOc1ccc(Cc2ccc(NC(C)=O)cc2)c(C)c1", "> 10 µM"]
]}

Next up:
EC50 for CC(=O)Nc1ccc(Cc2ccc(OCCN)cc2)cc1 ?
> 10 µM
